System: OVCAR-4
Experiment: NCI tumour cell line growth inhibition, 48 h
Active and inactive are the calls of the source. Cut-off read from the data, not from the text of the source: active = GI50 up to about 1.1 µM and inactive = higher.
API: response.call in active, inactive

Past entries and their recorded results:
# compound, category label
measured = [
    ("Cc1c(C(=N)N)oc2ccccc12", "inactive"),
    ("CCOC(=O)c1[nH]c(Br)c(-c2ccc(OC)c(OC)c2)c1Br", "inactive"),
    ("CCOC(=O)C(NCc1ccc2c(c1)OCO2)(NC(=O)c1ccccc1)C(F)(F)F (configuration not stated)", "inactive"),
    ("CCCCCC(O)[C@H]1C(=O)C[C@@H](O[Si](C)(C)C(C)(C)C)[C@@H]1/C=C/CCOCc1ccccc1 (some centres not stated)", "inactive"),
    ("COc1cc2c(cc1OCCCCCN1C(=O)c3cccc4cccc(c34)C1=O)N=C[C@@H]1CCCN1C2=O", "active"),
]

Please examine the following record next.
-- ask Kindly provide the recorded test outcome for the following compound: COc1nc2c(c(O)c(C)c(=O)n2OC2OC(COC(C)=O)C(OC(C)=O)C(OC(C)=O)C2OC(C)=O)c(=O)n1C (configuration not stated)
-- reply inactive
